testSummary: Phase 1 single ascending dose (SAD) pharmacokinetics in healthy volunteers
Type: in vivo, human
studyConditions: male, human, plasma, oral, 90 mg, SAD 90 mg fasted, n = 6; plasma total; geometric mean (CV %); read-out: Cmax
Entries and their measured Cmax follow.
Respond with a number, then the unit of measure.

- CC(=O)c1ccc(CCOc2ccc(CC3SC(=O)NC3=O)cc2)nc1 (centres unmarked) [Compound M3]: 2550 ng/mL

API: the following record is the query input.
Q) Returns the measured Cmax for the input compound. Input: CC(O)c1ccc(CCOc2ccc(CC3SC(=O)NC3=O)cc2)nc1 (centres unmarked) [Leriglitazone]
A) 4430 ng/mL

----------
testSummary: Phase 1 single ascending dose (SAD) pharmacokinetics in healthy volunteers
Format: in vivo, human
studyConditions: male, human, plasma, oral, 270 mg, single dose 270 mg Fed; read-out: AUC, Observed
readoutType: AUC (µg·h/mL)
Supply the numeric figure in µg·h/mL, leaving out any unit text.

Q) Returns the measured AUC for the input compound. Input: CC(O)c1ccc(CCOc2ccc(CC3SC(=O)NC3=O)cc2)nc1 (stereo not shown)
A) 368

----------
testSummary: Phase 1 single ascending dose (SAD) pharmacokinetics in healthy volunteers
Type: in vivo, human
studyConditions: male, human, plasma, oral, 270 mg, SAD 270 mg fed, n = 5; Median; read-out: Tmax
readoutType: Tmax
Respond with a number, then the unit of measure.

Q) Returns the measured Tmax for the input molecule. Input: CC(O)c1ccc(CCOc2ccc(CC3SC(=O)NC3=O)cc2)nc1 (centres unmarked)
A) 4 h

Q) Returns the measured Tmax for the input molecule. Input: CC(=O)c1ccc(CCOc2ccc(CC3SC(=O)NC3=O)cc2)nc1 (centres unmarked)
A) 4 h

----------
testSummary: Phase 1 single ascending dose (SAD) pharmacokinetics in healthy volunteers
Assay type: in vivo, human
studyConditions: male, human, plasma, oral, 90 mg, single dose 90 mg Fed; read-out: Cmax, Observed
readoutType: Cmax (ng/mL)
Supply the numeric figure in ng/mL, leaving out any unit text.

Q) Returns the measured Cmax for the input molecule. Input: CC(O)c1ccc(CCOc2ccc(CC3SC(=O)NC3=O)cc2)nc1 (stereo not shown) [Leriglitazone]
A) 3170

----------
testSummary: Phase 1 single ascending dose (SAD) pharmacokinetics in healthy volunteers
Format: in vivo, human
studyConditions: male, human, plasma, oral, 270 mg, SAD 270 mg fasted, n = 5; geometric mean (CV %); read-out: Vz/F
readoutType: Vd/F (L)
Supply the numeric figure in L, leaving out any unit text.

Q) Returns the measured Vd/F for the input molecule. Input: CC(O)c1ccc(CCOc2ccc(CC3SC(=O)NC3=O)cc2)nc1 (stereo not shown) [Leriglitazone]
A) 24

----------
testSummary: Phase 1 single ascending dose (SAD) pharmacokinetics in healthy volunteers
Format: in vivo, human
studyConditions: male, human, plasma, oral, 90 mg, SAD 90 mg Fed; NCA estimate; read-out: Vss
readoutType: Vd (L)
Supply the numeric figure in L, leaving out any unit text.

Q) Returns the measured Vd for the input molecule. Input: CC(O)c1ccc(CCOc2ccc(CC3SC(=O)NC3=O)cc2)nc1 (stereo not shown)
A) 28.1

----------
testSummary: Phase 1 single ascending dose (SAD) pharmacokinetics in healthy volunteers
Type: in vivo, human
studyConditions: male, human, plasma, oral, 270 mg, single dose 270 mg Fasted; read-out: Tmax, Observed
readoutType: Tmax (h)
Supply the numeric figure in h, leaving out any unit text.

Q) Returns the measured Tmax for the input molecule. Input: CC(O)c1ccc(CCOc2ccc(CC3SC(=O)NC3=O)cc2)nc1 (stereo not shown)
A) 1.5

Where do these numbers come from? They come from patent US20260207570A1.
